B1: Hairpin Ribozyme (parent)
chain: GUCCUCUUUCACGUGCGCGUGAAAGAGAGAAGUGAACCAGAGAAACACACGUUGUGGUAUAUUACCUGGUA

Variants of: B1
Test: self-cleavage, relative activity (ratio to wild type); higher = more cleavage; co-transcriptional
Quantity name: self-cleavage
Answer with the value's number alone.

Prompt: Param item = A36G A47U ; retrieve measured self-cleavage.
Completion: 0.127

Prompt: Consider the variant C6U G21U and give its measured self-cleavage.
Completion: 0.468

Others:
Prompt: # lookup: self-cleavage of U33A U53G
Completion: 0.0866

Prompt: Tell me the measured self-cleavage of G25U C48G , please.
Completion: 0.129

Prompt: Endpoint output: self-cleavage of G32U A41G . Value?
Completion: 0.0256
